# credit: the supplement of paper PMC10567573

B1: SCARA5 (parent)
chain: VTEDLRLKDWEHSIALRNISLAKG

Variants of: B1
Protocol Summary: protein stability index of a GFP-peptide fusion (GPS, HEK-293T) (PSI 1-6); higher = more stable;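 further: lentivirally expressed fusions sorted by FACS into six bins by GFP to DsRed ratio, PSI derived from sequencing read proportions per bin multiplied by bin number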
Details: c terminus: a fixed tail appended
Measurement Kind: protein stability index
Simply state the number, no unit and no words.

L16G | 4
H12F | 2.28
L7N | 3.83
K23N | 3.48
L7C | 3.39
W10A | 4.28
L7K | 3.91
D9T | 3.18
L7Y | 3.2
D9L | 2.64

Given the entry "H12L" , report its measured protein stability index.
2.38
